# assayedTarget: Polyunsaturated fatty acid 5-lipoxygenase (Homo sapiens) (UniProt P09917)
# Sequence (P09917 whole entry): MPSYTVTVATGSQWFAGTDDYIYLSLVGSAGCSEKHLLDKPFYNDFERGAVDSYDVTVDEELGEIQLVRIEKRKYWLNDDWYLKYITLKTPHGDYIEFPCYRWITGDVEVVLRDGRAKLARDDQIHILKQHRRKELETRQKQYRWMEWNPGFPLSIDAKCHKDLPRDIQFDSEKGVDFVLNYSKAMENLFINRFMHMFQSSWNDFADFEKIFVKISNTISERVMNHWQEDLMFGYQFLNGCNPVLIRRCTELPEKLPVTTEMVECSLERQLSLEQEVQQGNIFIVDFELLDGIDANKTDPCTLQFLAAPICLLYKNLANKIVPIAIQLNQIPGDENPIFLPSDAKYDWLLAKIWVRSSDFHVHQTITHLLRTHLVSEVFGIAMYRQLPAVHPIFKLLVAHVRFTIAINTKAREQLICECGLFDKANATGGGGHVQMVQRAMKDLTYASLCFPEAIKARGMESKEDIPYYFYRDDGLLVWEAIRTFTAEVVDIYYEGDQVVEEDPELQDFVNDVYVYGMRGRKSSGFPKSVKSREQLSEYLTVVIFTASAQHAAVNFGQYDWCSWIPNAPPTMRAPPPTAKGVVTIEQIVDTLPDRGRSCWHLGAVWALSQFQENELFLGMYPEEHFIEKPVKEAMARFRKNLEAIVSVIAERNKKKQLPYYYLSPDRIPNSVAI
# measurementNotes: Inhibition of 5-lipoxygenase in human intact polymorphonuclear leukocytes assessed as suppression of A23187-induced product formation at 10 uM
# Set-up: scale not given: the % may be the effect or the level left
Active and inactive are the calls of the source. No cut-off for these calls is given here.
resultType: Activity

Reference set, count: 5
1. CCOC(=O)C(Sc1nc(Cl)cc(Nc2cccc(C)c2C)n1)c1ccccc1 (stereo not drawn)	18.7%
2. O=C(O)C(Sc1nc(Cl)cc(Nc2ccc3ncccc3c2)n1)c1ccccc1 (stereo not drawn)	69.1%
3. Cc1cccc(Nc2cc(Cl)nc(SC(C)C(=O)O)n2)c1C (stereo not drawn)	inactive
4. CCCCCCC(Sc1nc(Cl)cc(Oc2ccc3ncccc3c2)n1)C(=O)O (stereo not drawn)	10.7%
5. CCOC(=O)CSc1nc(Cl)cc(Nc2cccc(C)c2C)n1	77.7%

Now for another entry.
Look up Polyunsaturated fatty acid 5-lipoxygenase (Homo sapiens) (UniProt P09917) data: Activity of CCCCC(Sc1nc(Cl)cc(Nc2ccc3ncccc3c2)n1)C(=O)O (stereo not drawn) , then report it.
50%

Where do these numbers come from? They come from ChEMBL document CHEMBL1140046.
